Cited source for all entries: the supplement of paper PMC13380429

- Tested on: Calu-3
- Measurement protocol: cell viability relative to DMSO; higher = less toxic
- Condition summary: 72 h; 1000 nM
Below, each of the molecules is paired with its reported cell viability value.
Value kind: cell viability (%)

Structure: O=C1[C@H]2CCCC[C@H]2C(=O)N1CCCCN1CCN(c2nsc3ccccc23)CC1
System: Calu-3
Val: 98.7
//
Structure: NC(=O)c1ccc(I)c([N+](=O)[O-])c1
System: Calu-3
Val: 102
//
Structure: CC1(C)Oc2ccc(C#N)cc2[C@@H](OC2=CC(=O)CC2)[C@@H]1O
System: Calu-3
Val: 102
//
Structure: CCc1ccc(C2=CC(C)(C)Sc3ccc(C#Cc4ccc(C(=O)O)cc4)cc32)cc1
System: Calu-3
Val: 94.6
//
Structure: CCCCOc1ccc(CC(=O)NO)cc1
System: Calu-3
Val: 98.2

====

- System: HepG2
- Measurement protocol: cell viability relative to DMSO; higher = less toxic
- Condition summary: 72 h; 10 nM
Value kind: cell viability (%)

Molecule: O=C(OCCO)c1ccccc1O [2-hydroxyethyl-salicylate]
Units symbol: %
Val: 99.8
--
Molecule: O=C(OCCN1CCOCC1)C1(c2ccccc2)CCCCC1
Units symbol: %
Val: 102
--
Molecule: COc1ccc2cc(C(C)C(=O)Oc3ccc(C(N)=S)cc3)ccc2c1 (stereo not given)
Units symbol: %
Val: 88.4
--
Molecule: Nc1c(Br)cc(Br)cc1CN[C@H]1CC[C@H](O)CC1
Units symbol: %
Val: 98.5
--
Molecule: CC(C)(O)CC(=O)O [beta-hydroxy-beta-methylbutyrate]
Units symbol: %
Val: 94.3
--
Molecule: CC(=O)[C@H]1CC[C@H]2[C@@H]3CC[C@H]4C[C@H](O)CC[C@]4(C)[C@H]3CC[C@]12C
Units symbol: %
Val: 92.4
--
Molecule: CC(C)CN(C[C@@H](O)[C@H](Cc1ccccc1)NC(=O)O[C@H]1CCOC1)S(=O)(=O)c1ccc(N)cc1
Units symbol: %
Val: 88.9
--
Molecule: CCOC(=O)C1=C(C)NC(C)=C(C(=O)OCC)C1c1ccccc1/C=C/C(=O)OC(C)(C)C
Units symbol: %
Val: 102
--
Molecule: Cc1c(-c2ccnn2C)cc(C(=O)NCc2ccc(S(C)(=O)=O)cn2)c(=O)n1-c1cccc(C(F)(F)F)c1
Units symbol: %
Val: 102
--
Molecule: CS(=O)(=O)c1ccc(-c2cnc(N)c(C(=O)Nc3ccccc3)n2)cc1
Units symbol: %
Val: 99.3
--
Molecule: CN1CC(=O)NC1=N
Units symbol: %
Val: 97.3
--
Molecule: NC(=O)N/N=C/c1ccc(Oc2ccc(F)cc2)cc1
Units symbol: %
Val: 106
--
Molecule: COc1cc(C[C@H]2c3cc(OC)c(OC)cc3CCN2C)c(Oc2cc3c(cc2OC)-c2c(OC)c(OC)cc4c2[C@H](C3)N(C)CC4)cc1OC
Units symbol: %
Val: 111
--
Molecule: Cc1cc(SCc2sc(-c3ccc(C(F)(F)F)cc3)nc2C)ccc1OCC(=O)O
Units symbol: %
Val: 101
--
Molecule: CN(C)C/C=C/C(=O)Nc1cc2c(Nc3ccc(F)c(Cl)c3)ncnc2cc1O[C@H]1CCOC1
Units symbol: %
Val: 96.1

====

- Test system: HepG2
- Measurement protocol: drug sensitivity score (DSS) for viability; higher = more toxic; extreme values may be limits of the assay
- Condition summary: 72 h
Below, each of the compounds is paired with its reported drug sensitivity score value.

Compound: Cn1ncnc1[C@H]1c2n[nH]c(=O)c3cc(F)cc(c23)N[C@@H]1c1ccc(F)cc1
drug sensitivity score: 8.5
--
Compound: O=C(/C=C/c1ccc(O)c(O)c1)O[C@@H]1C[C@](O)(C(=O)O)C[C@@H](O)[C@H]1O
drug sensitivity score: 0
--
Compound: CCCCCCCCCCCCCCSCC(=O)O
drug sensitivity score: 0
--
Compound: Nc1ncnc2c1c(-c1ccc(Oc3ccccc3)cc1)nn2C1CCCC1
drug sensitivity score: 1
--
Compound: CC(C)C(=O)c1c(C(C)C)nn2ccccc12
drug sensitivity score: 0
--
Compound: N=C(N)NC(=N)Nc1cccc(Cl)c1 [m-chlorophenylbiguanide]
drug sensitivity score: 0
--
Compound: COC(=O)C1=CCCN(C)C1
drug sensitivity score: 0
--
Compound: CN(C)Cc1ccc(S(=O)(=O)n2ccc(/C=C/C(=O)NO)c2)cc1
drug sensitivity score: 9.1
--
Compound: CCCNS(=O)(=O)Nc1ncnc(OCCOc2ncc(Br)cn2)c1-c1ccc(Br)cc1
drug sensitivity score: 1.8
--
Compound: O=C1[C@H]2CCCC[C@H]2C(=O)N1CCCCN1CCN(c2nsc3ccccc23)CC1
drug sensitivity score: 2
--
Compound: CC(=O)Oc1ccccc1C(=O)O
drug sensitivity score: 0
--
Compound: Cc1cc(CC(=O)O)n(C)c1C(=O)c1ccc(Cl)cc1 [zomepirac]
drug sensitivity score: 0.1
--
Compound: O=C1CCC[C@@H]2[C@H]3C[C@@H](CN12)[C@@H]1CCCCN1C3
drug sensitivity score: 0
--
Compound: O.O=[Si]=O.O=[Si]=O.O=[Si]=O.O=[Si]=O.[O]=[Mg].[O]=[Mg].[O]=[Mg]
drug sensitivity score: 0
--
Compound: C/C(=C\c1csc(C)n1)[C@@H]1C[C@@H]2O[C@]2(C)CCC[C@H](C)[C@H](O)[C@@H](C)C(=O)C(C)(C)[C@@H](O)CC(=O)O1
drug sensitivity score: 37.2
--
Compound: CCOc1ccccc1-n1c(C(C)N2CCN(C(=O)COc3ccc(Cl)cc3)CC2)nc2ccccc2c1=O (stereo unspecified)
drug sensitivity score: 6.9
--
Compound: Nc1nccc(-c2c(-c3ccc(F)cc3)ncn2C2CCCCC2)n1
drug sensitivity score: 4.3
--
Compound: C[C@]12CCC(=O)C[C@@H]1CC[C@@H]1[C@@H]2CC[C@]2(C)[C@@H](O)CC[C@@H]12 [Dihydrotestosterone]
drug sensitivity score: 0
--
Compound: O=C(Nc1ccccc1)N1CCN(c2nc(-c3ccccc3)ns2)CC1
drug sensitivity score: 0.6
--
Compound: CCS(=O)(=O)N(Cc1cccnc1)c1cccc(-c2ccc(C#N)cc2)c1
drug sensitivity score: 1.9
--
Compound: O=C(Cn1ccnc1[N+](=O)[O-])NCCO
drug sensitivity score: 0
